# Test system: S. cerevisiae Mot1-301 ts growth rescue, BacTiter-Glo ATP luminescence
# assay-summary: restored Mot1-301 yeast growth at 38.5C – whole organism, S. cerevisiae, Mot1-301 ts mutant, luminescence, dose retest, SUMOylation pathway inhibitor project, confirmation (AID 463204);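 further: growth at restrictive 38.5 degrees C of Mot1-301 OY566 strain; actives raise luminescence by restoring growth of the ts mutant at high temperature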
The source made the active and inactive calls.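 How the source made its calls: active means AC50 no more than ten times the top concentration tested, that is within one log above it; inconclusive means flat curve fit with activity between 30% and 70%, or invalid poor fit; inactive means AC50 beyond ten times the top tested dose.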
Output constraint: value belongs to true (1) for active, false (0) for inactive

Completed entries (count: 4):
molecule	class
CCCNC(=O)Cn1sc2nc(C)cc(C)c2c1=O	false (0)
O=C(COC(=O)/C=C/c1ccco1)Nc1ncc(C(F)(F)F)cc1Cl	false (0)
COC(=O)c1ccc(Cn2cc(Cl)cn2)cc1	false (0)
OC(c1ccccc1)(C1CCCCC1)C(CN1CCOCC1)c1ccccc1 (centres undefined)	true (1)

Give the logged outcome of this assay for the following molecule: COc1ccc(CN(CC(=O)NCC2CCCO2)C(=O)CCC(=O)Nc2cc(C)on2)cc1 (centres undefined)
false (0)

Give the logged outcome of this assay for the following molecule: COc1cccc(OC)c1OCC(O)CN1CCN(c2ccccc2)CC1 (centres undefined)
false (0)

Give the logged outcome of this assay for the following molecule: CCOC(=O)Cn1c(C)c(Br)c(=O)c2cccc(C)c21
false (0)

Give the logged outcome of this assay for the following molecule: COC(=O)c1ccc(NC(=O)CCN2CCN(c3ccccc3)CC2)cc1
false (0)

Give the logged outcome of this assay for the following molecule: CC(C)c1ccc2c(c1)CCC1C(C)(CN)CCCC21C (centres undefined)
true (1)

---

# Test system: S. cerevisiae Mot1-301 ts growth rescue, BacTiter-Glo ATP luminescence
# assay-summary: restored Mot1-301 yeast growth at 38.5C – whole organism, S. cerevisiae, Mot1-301 ts mutant, luminescence, dose retest, SUMOylation pathway inhibitor project, confirmation (AID 463204);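 further: growth at restrictive 38.5 degrees C of Mot1-301 OY566 strain; actives raise luminescence by restoring growth of the ts mutant at high temperature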
Calls of active or inactive are those of the source.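 How the source made its calls: active means AC50 no more than ten times the top concentration tested, that is within one log above it; inconclusive means flat curve fit with activity between 30% and 70%, or invalid poor fit; inactive means AC50 beyond ten times the top tested dose.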
Output constraint: value belongs to active, inactive

Completed entries (count: 5):
compound	class
CCCCC(O)(CCCC)C(=O)NN(C(=O)OC)c1ccc(C)cc1	inactive
O=S(=O)(NCc1cccc(C(F)(F)F)c1)NCc1ccccc1F	inactive
Clc1ccccc1C(c1ccccc1)(c1ccccc1)n1ccnc1	active
Cc1ccc(NC(=O)CN2C(=O)COc3ccc(S(=O)(=O)N4CCOCC4)cc32)cc1F	inactive
N#CC1=C(N)OC2=C(C(=O)CCC2)C1C1CC=CCC1 (centres undefined)	inactive

Give the logged outcome of this assay for the following compound: COc1ccccc1-n1nnnc1SCC(=O)Nc1ccc(C)c(N)c1
inactive

Give the logged outcome of this assay for the following compound: CC1(OC(=O)C2CCCC2)C(=O)C=C2C=C(c3ccsc3)OC=C2C1=O (centres undefined)
inactive

Give the logged outcome of this assay for the following compound: C/C(=N\NC(=S)Nc1ccccc1)C1Cc2ccccc2C(=O)O1 (centres undefined)
inactive

---

Would you kindly list AC50 for each of these molecules?
# Test system: S. cerevisiae Mot1-301 ts growth rescue, BacTiter-Glo ATP luminescence
# assay-summary: restored Mot1-301 yeast growth at 38.5C – whole organism, S. cerevisiae, Mot1-301 ts mutant, luminescence, dose retest, SUMOylation pathway inhibitor project, confirmation (AID 463204);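 further: growth at restrictive 38.5 degrees C of Mot1-301 OY566 strain; actives raise luminescence by restoring growth of the ts mutant at high temperature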
Active and inactive are the calls of the source.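 Rule for the calls: active = AC50 no more than ten times the top concentration tested, that is within one log above it; inconclusive = flat curve fit with activity between 30% and 70%, or invalid poor fit; inactive = AC50 beyond ten times the top tested dose.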

molecule	target-of-assay	AC50
CCC(C)[C@H]1COCCS(=O)(=O)N1Cc1ccc(C)cc1 (stereo partly drawn)	S. cerevisiae Mot1-301 ts growth rescue, BacTiter-Glo ATP luminescence	> 42 µM (inactive)
CCOC(=O)c1cccc(NC(=O)C2CCCN(S(=O)(=O)c3c(C)n[nH]c3C)C2)c1 (stereo not drawn)	S. cerevisiae Mot1-301 ts growth rescue, BacTiter-Glo ATP luminescence	> 42 µM (inactive)
CCN(CC)C(=O)CSC(Nc1cccc(F)c1)=C(C#N)C#N	S. cerevisiae Mot1-301 ts growth rescue, BacTiter-Glo ATP luminescence	> 42 µM (inactive)
Oc1c(Br)cc(Br)cc1/C=N/N1CCN(Cc2ccccc2)CC1	S. cerevisiae Mot1-301 ts growth rescue, BacTiter-Glo ATP luminescence	1.78 µM

Give me AC50 for each of these molecules, listed below.
1. CCN(CCn1cccn1)C(=O)C1CCC(=O)N(CCc2cccc(F)c2)C1 (stereo not drawn)
2. CCc1c(C)c2ccc(OCC(=O)OC(C)C)c(C)c2oc1=O
3. CCn1c(-c2ccccc2)c(C(=O)CC#N)c2ccccc21
4. CC(=O)N1CC(=O)Nc2ccc(Cl)cc2C1c1ccccc1 (stereo not drawn)
5. CCN(CC)/C(=N\S(=O)(=O)c1ccc(F)cc1)c1ccccc1

> 42 µM (inactive)
> 42 µM (inactive)
> 42 µM (inactive)
> 42 µM (inactive)
> 21 µM (inactive)
